Cited source for all entries: patent US10035771B2

Readings of inhibition at 100 µg/mL for the listed compounds
EXPERIMENTAL TARGET: BoNT/F-LC (Clostridium botulinum)
Sequence (A7GBG3 1-436 limits assumed): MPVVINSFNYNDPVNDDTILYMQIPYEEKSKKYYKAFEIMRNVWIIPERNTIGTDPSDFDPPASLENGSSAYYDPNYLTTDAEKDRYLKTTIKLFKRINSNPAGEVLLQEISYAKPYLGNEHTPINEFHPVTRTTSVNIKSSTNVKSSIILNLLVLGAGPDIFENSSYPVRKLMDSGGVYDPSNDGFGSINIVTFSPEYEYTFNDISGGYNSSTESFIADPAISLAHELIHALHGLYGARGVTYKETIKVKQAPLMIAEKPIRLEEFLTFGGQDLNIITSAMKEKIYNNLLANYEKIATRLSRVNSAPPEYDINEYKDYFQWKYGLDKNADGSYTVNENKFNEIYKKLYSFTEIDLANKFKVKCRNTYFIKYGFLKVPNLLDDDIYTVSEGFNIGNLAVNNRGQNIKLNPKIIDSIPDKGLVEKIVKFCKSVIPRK
MEASUREMENT DESCRIPTION: biochemical
TEST SETTINGS: read-out: Inhibition rate %
Enter your answer as a number in %; do not include the unit.

Worked examples follow.
## Input Provide inhibition at 100 µg/mL value for the following compound: O=C(CSc1ncccc1C(=O)[O-])Nc1ccccc1OC(F)(F)F.[K+] [Example 24, potassium]
## Output 11.2

## Input Quote inhibition at 100 µg/mL reported for O=C(CSc1ncccc1C(=O)[O-])Nc1ccccc1Cl.[K+] [Example 8, potassium] please.
## Output 15.3

## Input Give a short answer stating reported inhibition at 100 µg/mL for O=C(CSc1ncccc1C(=O)[O-])Nc1cccc(Cl)c1.[K+] [Example 20, potassium] .
## Output 17.8

Others:
## Input Fill in reported inhibition at 100 µg/mL for this entry: COc1ccc(Cl)cc1NC(=O)CSc1ncccc1C(=O)O [Example 2]
## Output 13.2

## Input Fill in reported inhibition at 100 µg/mL for this entry: O=C(CSc1ncccc1C(=O)[O-])Nc1cc(Cl)ccc1OCc1ccccc1.[K+] [Example 23, sodium]
## Output 35.8

## Input Identify inhibition at 100 µg/mL associated with the compound O=C(CSc1ncccc1C(=O)[O-])Nc1ccc(Br)cc1.[K+] [Example 12, potassium]
## Output 13.2
